Let's look at some molecules and their measured pKi.
- Assay target: T1, ΔCARD human caspase 9 (Homo sapiens, UniProt P55211, D305A/E304A/E306A)
- T1 construct: made in house
- T1 sequence (P55211 139-315 E304A/D305A/E306A limits assumed): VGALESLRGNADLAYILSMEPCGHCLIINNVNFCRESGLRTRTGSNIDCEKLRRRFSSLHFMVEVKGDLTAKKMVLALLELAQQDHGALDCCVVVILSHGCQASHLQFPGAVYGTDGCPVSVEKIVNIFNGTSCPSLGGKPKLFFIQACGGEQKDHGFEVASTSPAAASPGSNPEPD
- T1 sequence (P55211 316-416 limits assumed): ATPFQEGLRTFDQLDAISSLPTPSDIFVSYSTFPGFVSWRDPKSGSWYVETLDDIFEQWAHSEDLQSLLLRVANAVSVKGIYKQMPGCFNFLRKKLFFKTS
- Procedure text: Determination of caspase-9 inhibitory constants (Ac-LEHD-AFC hydrolysis)
- Format: biochemical
- Assay context: 300 nM ΔCARD caspase 9, 100 μM Ac-LEHD-AFC, 37° C.; read-out: Caspase-9 inhibition Ki(app)
Scale: negative log10 of molar concentration, which is what pKi denotes.

Molecule	pKi
MLXBIR3: ML-IAP-BIR in which amino acids 160–179 were replaced with amino acids 336–348 of XIAP-BIR3 (protein, left off: small tags and cut ends) TEEEEEEGAGATLSRGPAFPGMGSEELRLASFYDWPLTAEVPPELLAAAGFFHTGHQDKVRCFFCYGGLQSWKRGDDPWTEHAKWFPSCQFLLRSKGQEYINNIHLTHSL	6.02

Read the next record carefully.
Please fill in: pKi reported for XIAP-BIR3: third BIR domain of XIAP (residues 252–348) (protein, left off: small tags and cut ends) NSTNLPRNPSMADYEARIFTFGTWIYSVNKEQLARAGFYALGEGDKVKCFHCGGGLTDWKPSEDPWEQHAKWYPGCKYLLEQKGQEYINNIHLTHSL = 7.89
